The reported measurements were obtained from patent US20190248902A1.

Target under test: T1, human ASGR-1 (human, UniProt P07306 1-291)
T1 construct: Stably expressed on CHO-S cells (CHO-S:huASGR-1); The method text says human or mouse ASGR-1 cells were used; also called huASGR-1; hASGR-1
T1 sequence: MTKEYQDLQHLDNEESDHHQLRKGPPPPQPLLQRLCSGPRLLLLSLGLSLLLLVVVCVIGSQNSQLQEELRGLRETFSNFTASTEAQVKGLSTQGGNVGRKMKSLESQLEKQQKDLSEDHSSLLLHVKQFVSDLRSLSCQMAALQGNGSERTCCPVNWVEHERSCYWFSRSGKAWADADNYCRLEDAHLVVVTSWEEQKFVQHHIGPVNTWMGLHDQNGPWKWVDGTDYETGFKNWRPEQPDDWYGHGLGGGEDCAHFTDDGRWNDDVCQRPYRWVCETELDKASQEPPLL
Assay procedure: FACS ligand blocking on CHO-S ASGR-1 cells; labelled ligand biotin-GalNAc-PAA (synthetic sugar)
Experimental readout: IC50 (nM)
Field: numeric (nM). Do not append units.

194C1 (antibody, V domains shown) VH: QVQLVESGGGVVQPGRSLRLSCAASGFTFSSYGMHWVRQAPGKGLEWVAVIWYDGSNEHYADSVKGRFTISRDNSKNTLYLQMNSLRAEDTAVYYCARNRGVGYYGLDVWGQGTTVTVSS VL: DIQMTQSPSSLSASVGDRVTITCRASQGISNYLAWFQQKPGKAPKSLIYAASSLQSGVPSKFSGSGSGTDFTLTISSLQPEDFATYYCLHYLTYPLTFGGGTKVEIK : 72
193E7 (antibody, V domains shown) VH: QVQLQQWGAGLLKPSETLSLTCAVYGGSFSGYFWTWIRQPPGKGLEWIGEINHSGSTNYNPSLKSRVTISVDTSKNQFSLKLSSVTAADTAVYYCARDYGADYWGQGTLVAVSA VL: DIQMTQSPSSLSASVGDRVTITCRASQGIRNDLGWYQQKPGKAPKRLIYSASSLQRGVPSRFSGSGSGTEFTLTISSLQPEDFATYYCLQHKRYPLTFGGGTKVEIK : 33
191G1 (antibody, V domains shown) VH: QVQLVESGGGVVQPGRSLRLSCAASGFTFSSYGMHWVRQAPGKGLEWVAVIWYDGSNEHYADSVKGRFTISRDNSKNTLYLQMNSLRAEDTAVYYCARDRGVGYYGLDVWGQGTTVTVSS VL: DIQMTQSPSSLSASVGDRVTITCRASQGISNYLAWFQQKPGKAPKSLIYAASSLQSGVPSKFSGSGSGTDFTLTISSLQPEDFATYYCQHYLTYPLTFGGGTKVEIK : 62

What does the record list as IC50 for 198D2 (antibody, V domains shown) VH: QVQLVESGGGVVQPGRSLRLSCAASGFTFRSYGMHWVRQAPGKGLEWVAVIIYDGSYKYYADSVKGRFTISRDNSKNTLYLQMNSLRAEDTAVYYCARTYSGGMDVWGQGTTVTVSS VL: QSVLTQPPSVSAAPGQKVTISCSGSSSNIGSNYVSWYQQLPGTAPKVLIYDNNKRPSGIPDRFSGSKSGTSATLGITGLQTGDEADYYCGTWDSRLNVGVFGGGTKLTVL ? 55

Could you do the same for 25A4 (antibody, V domains shown) VH: QVLLVQSGAEVKRPGASVKVSCKASGYTFTNYDINWVRQATGQGLEWMGWMYPNSGNTGYAQKFQGRVTMTRNTSISTAYMELSSLRSEDTAVYYCASSSGWYYFDYWGQGTLVTVSS VL: DIVMTQFPDSLAVSLGERATIKCKSSQSVLYSSHNNNYLAWYQQKPGQPPKLLLYWASTRESGVPDRFSGSGSGTEFTLTISSLEAEDVAVYYCQQYYSTPPTFGQGTKVEIK , please? 40
